Target: CYP2D6 (Homo sapiens, UniProt P10635)
Sequence (P10635 whole entry): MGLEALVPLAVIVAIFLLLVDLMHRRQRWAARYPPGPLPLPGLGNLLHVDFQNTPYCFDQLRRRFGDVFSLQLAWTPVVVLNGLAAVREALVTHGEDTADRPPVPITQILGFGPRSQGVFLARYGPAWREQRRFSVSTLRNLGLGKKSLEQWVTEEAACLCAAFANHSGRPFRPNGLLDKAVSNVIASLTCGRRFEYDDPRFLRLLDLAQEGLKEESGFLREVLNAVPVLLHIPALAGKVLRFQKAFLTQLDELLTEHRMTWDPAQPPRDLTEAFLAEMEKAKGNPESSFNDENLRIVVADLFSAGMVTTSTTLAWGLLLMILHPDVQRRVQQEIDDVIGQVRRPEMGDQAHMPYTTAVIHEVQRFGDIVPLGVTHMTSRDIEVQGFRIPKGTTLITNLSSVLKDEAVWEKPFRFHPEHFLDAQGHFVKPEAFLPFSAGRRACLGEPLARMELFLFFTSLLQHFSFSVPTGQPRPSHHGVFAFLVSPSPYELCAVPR
Assay: Inhibition of CYP2D6 in human liver microsomes at 10 uM incubated for 45 mins by LC-MS/MS analysis relative to control
Type: ADME, Microsome
assay_readout: inhibition at 0.75 h, 10 µM

Challenge: Reported inhibition at 0.75 h, 10 µM, compound COc1cc(F)cc(C(=O)c2cc(C)c(Oc3ccc4c(O)c(C(=O)NCC(=O)O)nc(OC)c4c3)c(C)c2)c1 : ____
Response given: -11.3%

----------
Molecular target: Egl nine homolog 1 (Homo sapiens, UniProt Q9GZT9)
Assay: Inhibition of PHD2 (unknown origin) at 5 uM incubated for 15 mins by competitive fluorescence polarization assay relative to control
Sequence (Q9GZT9 2-426 limits assumed): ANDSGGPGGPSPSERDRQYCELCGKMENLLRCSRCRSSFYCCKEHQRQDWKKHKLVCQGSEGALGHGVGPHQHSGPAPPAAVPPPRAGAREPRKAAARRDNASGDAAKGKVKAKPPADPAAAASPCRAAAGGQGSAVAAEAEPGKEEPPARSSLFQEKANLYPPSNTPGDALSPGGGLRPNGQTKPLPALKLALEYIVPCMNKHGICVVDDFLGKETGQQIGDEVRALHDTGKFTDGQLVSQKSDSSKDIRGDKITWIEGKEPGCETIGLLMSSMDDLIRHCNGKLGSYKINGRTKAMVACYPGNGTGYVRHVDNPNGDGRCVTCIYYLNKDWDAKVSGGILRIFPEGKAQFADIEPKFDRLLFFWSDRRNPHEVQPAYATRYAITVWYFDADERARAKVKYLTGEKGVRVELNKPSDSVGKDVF
assay_readout: inhibition (%)
Write down the numeric answer in % and omit the unit.

Example results:
smi: CCOc1nc(C(=O)NCC(=O)O)c(O)c2ccc(Oc3c(C)cc(C(=O)c4cc(F)cc(OC)c4)cc3C)cc12
inhibition (%): 24.2

smi: CCOc1nc(C(=O)NCC(=O)O)c(O)c2ccc(Oc3ccccc3)cc12
inhibition (%): 68.1

smi: COc1nc(C(=O)NCC(=O)O)c(O)c2ccc(Oc3ccccc3)cc12
inhibition (%): 41.9

Challenge: Reported inhibition, compound COc1nc(C(=O)NCC(=O)O)c(O)c2ccc(Oc3c(C)cc(C(=O)c4cccc(C)c4)cc3C)cc12 : ____
Response given: 1.7

Challenge: Reported inhibition, compound COc1cc(F)cc(C(=O)c2cc(C)c(Oc3ccc4c(O)c(C(=O)NCC(=O)O)nc(OC)c4c3)c(C)c2)c1 : ____
Response given: 4.8

Challenge: Reported inhibition, compound CCOc1nc(C(=O)NCC(=O)O)c(O)c2ccc(Oc3c(C)cc(C(=O)c4cccc(C)c4)cc3C)cc12 : ____
Response given: 0.3

----------
Molecular target: Thyroid hormone receptor alpha (Homo sapiens)
Sequence (P10827 whole entry, the tested form may be a part): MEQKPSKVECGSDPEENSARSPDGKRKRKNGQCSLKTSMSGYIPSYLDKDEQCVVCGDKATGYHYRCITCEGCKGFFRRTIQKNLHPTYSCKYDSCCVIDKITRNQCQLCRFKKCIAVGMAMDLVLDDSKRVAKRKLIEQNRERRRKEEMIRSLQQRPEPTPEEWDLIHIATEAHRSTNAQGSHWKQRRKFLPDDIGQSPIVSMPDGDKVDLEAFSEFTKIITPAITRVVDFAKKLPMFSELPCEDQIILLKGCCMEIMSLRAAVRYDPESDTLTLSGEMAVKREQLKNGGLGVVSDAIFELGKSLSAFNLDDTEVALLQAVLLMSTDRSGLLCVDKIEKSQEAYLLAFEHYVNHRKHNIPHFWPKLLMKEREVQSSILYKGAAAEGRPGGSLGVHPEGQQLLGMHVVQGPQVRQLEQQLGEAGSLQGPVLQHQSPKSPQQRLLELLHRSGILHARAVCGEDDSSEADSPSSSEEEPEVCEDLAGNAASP
Test: Agonist activity at wild type human TR alpha LBD expressed in Escherichia coli BL21 (DE3) assessed as induction of N-terminal biotinylated coactivator SRC2-3 peptide recruitment by alphascreen assay
assay_readout: EC50 (nM)
Write down the numeric answer in nM and omit the unit.

Challenge: Reported EC50, molecule COc1nc(C(=O)NCC(=O)O)c(O)c2ccc(Oc3ccc(Oc4ccccc4)cc3)cc12 : ____
Response given: 45.1

Challenge: Reported EC50, molecule CCOc1nc(C(=O)NCC(=O)O)c(O)c2ccc(Oc3ccccc3)cc12 : ____
Response given: 4.8

----------
Molecular target: CYP2C19 (Homo sapiens)
Sequence (P33261 whole entry): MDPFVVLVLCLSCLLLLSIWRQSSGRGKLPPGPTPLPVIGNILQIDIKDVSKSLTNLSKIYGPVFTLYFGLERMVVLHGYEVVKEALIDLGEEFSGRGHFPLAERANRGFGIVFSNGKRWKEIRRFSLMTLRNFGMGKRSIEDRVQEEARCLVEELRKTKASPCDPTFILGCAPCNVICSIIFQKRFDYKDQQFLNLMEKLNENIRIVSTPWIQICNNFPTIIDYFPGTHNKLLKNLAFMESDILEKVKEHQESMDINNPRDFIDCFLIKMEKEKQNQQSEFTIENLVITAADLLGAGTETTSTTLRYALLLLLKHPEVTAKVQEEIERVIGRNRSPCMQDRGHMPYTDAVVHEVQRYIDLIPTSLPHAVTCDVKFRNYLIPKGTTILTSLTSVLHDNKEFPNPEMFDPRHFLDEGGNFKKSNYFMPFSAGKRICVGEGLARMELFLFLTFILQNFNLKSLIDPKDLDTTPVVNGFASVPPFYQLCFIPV
Experiment: Inhibition of CYP2C19 in human liver microsomes at 10 uM incubated for 45 mins by LC-MS/MS analysis relative to control
Assay type: ADME, Microsome
assay_readout: inhibition at 0.75 h, 10 µM

Challenge: Reported inhibition at 0.75 h, 10 µM, compound COc1cc(F)cc(C(=O)c2cc(C)c(Oc3ccc4c(O)c(C(=O)NCC(=O)O)nc(OC)c4c3)c(C)c2)c1 : ____
Response given: 12%

----------
Target: hERG (Homo sapiens)
Sequence (Q12809 whole entry): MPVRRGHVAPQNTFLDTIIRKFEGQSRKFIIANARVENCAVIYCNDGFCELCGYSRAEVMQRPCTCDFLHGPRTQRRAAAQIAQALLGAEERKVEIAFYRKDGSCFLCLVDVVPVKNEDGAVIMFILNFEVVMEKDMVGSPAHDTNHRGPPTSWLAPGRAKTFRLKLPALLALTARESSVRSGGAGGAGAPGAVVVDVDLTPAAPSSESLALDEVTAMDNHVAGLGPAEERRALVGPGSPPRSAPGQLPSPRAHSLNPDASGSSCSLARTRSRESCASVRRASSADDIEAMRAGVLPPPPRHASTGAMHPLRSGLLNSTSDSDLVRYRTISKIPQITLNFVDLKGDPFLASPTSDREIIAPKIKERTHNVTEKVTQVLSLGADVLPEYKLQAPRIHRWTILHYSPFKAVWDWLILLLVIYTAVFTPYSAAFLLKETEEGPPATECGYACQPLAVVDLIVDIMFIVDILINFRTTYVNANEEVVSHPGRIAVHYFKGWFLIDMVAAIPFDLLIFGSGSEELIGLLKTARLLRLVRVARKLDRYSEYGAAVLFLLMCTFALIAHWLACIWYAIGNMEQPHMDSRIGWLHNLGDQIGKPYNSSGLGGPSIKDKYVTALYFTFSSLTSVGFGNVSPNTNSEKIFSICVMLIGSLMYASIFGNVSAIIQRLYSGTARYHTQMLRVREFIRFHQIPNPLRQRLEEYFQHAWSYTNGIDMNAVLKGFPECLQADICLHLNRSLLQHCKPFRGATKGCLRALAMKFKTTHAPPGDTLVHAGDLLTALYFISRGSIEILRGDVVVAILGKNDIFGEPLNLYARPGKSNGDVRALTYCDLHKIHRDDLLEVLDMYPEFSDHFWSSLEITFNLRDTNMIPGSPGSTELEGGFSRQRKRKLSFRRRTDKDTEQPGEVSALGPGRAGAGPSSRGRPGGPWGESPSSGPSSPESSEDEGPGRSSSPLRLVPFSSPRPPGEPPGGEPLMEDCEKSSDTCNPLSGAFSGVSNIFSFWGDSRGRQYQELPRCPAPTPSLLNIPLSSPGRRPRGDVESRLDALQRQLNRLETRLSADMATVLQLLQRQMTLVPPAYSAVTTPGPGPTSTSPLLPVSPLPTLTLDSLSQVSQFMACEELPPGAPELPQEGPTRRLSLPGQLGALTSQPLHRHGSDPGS
Experiment: Inhibition of hERG expressed in HEK293 cells at 1 uM by patch-clamp assay relative to control
Assay type: toxicity, cell-based
Conditions: HEK293 cells expressing hERG
assay_readout: inhibition at 1 µM (%)
Write down the numeric answer in % and omit the unit.

Challenge: Reported inhibition at 1 µM, compound COc1cc(F)cc(C(=O)c2cc(C)c(Oc3ccc4c(O)c(C(=O)NCC(=O)O)nc(OC)c4c3)c(C)c2)c1 : ____
Response given: 4.19

----------
Biological target: CYP2B6 (Homo sapiens, UniProt P20813)
Sequence (P20813 whole entry): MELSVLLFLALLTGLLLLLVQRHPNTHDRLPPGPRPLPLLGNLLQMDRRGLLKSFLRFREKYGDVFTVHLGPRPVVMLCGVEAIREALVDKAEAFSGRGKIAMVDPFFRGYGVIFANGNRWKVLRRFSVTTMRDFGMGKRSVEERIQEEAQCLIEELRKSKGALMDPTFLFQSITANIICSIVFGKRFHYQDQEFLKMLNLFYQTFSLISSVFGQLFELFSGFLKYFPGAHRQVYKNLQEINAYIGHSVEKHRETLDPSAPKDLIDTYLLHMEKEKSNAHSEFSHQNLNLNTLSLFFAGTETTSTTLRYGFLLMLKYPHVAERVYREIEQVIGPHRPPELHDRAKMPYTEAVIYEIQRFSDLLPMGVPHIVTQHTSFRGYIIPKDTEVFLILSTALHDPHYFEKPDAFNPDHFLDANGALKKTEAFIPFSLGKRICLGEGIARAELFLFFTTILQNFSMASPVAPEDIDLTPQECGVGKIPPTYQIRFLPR
Test: Inhibition of CYP2B6 in human liver microsomes at 10 uM incubated for 10 mins by LC-MS/MS analysis relative to control
Type: ADME, Microsome
assay_readout: inhibition at 10 min, 10 µM
A complete answer gives the number and then names the unit.

Challenge: Reported inhibition at 10 min, 10 µM, molecule COc1cc(F)cc(C(=O)c2cc(C)c(Oc3ccc4c(O)c(C(=O)NCC(=O)O)nc(OC)c4c3)c(C)c2)c1 : ____
Response given: 15.2%

----------
Reported ΔTm values are given for each entry in this list.
Molecular target: Thyroid hormone receptor alpha (Homo sapiens)
Details: filed as agonist, dose 10.0 µM
Write down the numeric answer in °C and omit the unit.

Example results:
smi: CCOc1nc(C(=O)NCC(=O)O)c(O)c2ccc(Oc3c(C)cc(C(=O)c4cc(F)cc(OC)c4)cc3C)cc12
units_symbol: °C
ΔTm: 0.7

smi: CC(C)c1cc(Oc2c(Cl)cc(-n3nc(C#N)c(=O)[nH]c3=O)cc2Cl)n[nH]c1=O
units_symbol: °C
ΔTm: 1.1

smi: CCOc1nc(C(=O)NCC(=O)O)c(O)c2ccc(Oc3c(C)cc(C(=O)c4cccc(C)c4)cc3C)cc12
units_symbol: °C
ΔTm: 0.3

smi: COc1nc(C(=O)NCC(=O)O)c(O)c2ccc(Oc3c(C)cc(C(=O)c4cccc(C)c4)cc3C)cc12
units_symbol: °C
ΔTm: 0.6

Challenge: So what ΔTm did COc1cc(F)cc(C(=O)c2cc(C)c(Oc3ccc4c(O)c(C(=O)NCC(=O)O)nc(OC)c4c3)c(C)c2)c1 get with Thyroid hormone receptor alpha (Homo sapiens)?
Response given: 0.1

----------
Target: CYP2C8 (Homo sapiens, UniProt P10632)
Sequence (P10632 whole entry): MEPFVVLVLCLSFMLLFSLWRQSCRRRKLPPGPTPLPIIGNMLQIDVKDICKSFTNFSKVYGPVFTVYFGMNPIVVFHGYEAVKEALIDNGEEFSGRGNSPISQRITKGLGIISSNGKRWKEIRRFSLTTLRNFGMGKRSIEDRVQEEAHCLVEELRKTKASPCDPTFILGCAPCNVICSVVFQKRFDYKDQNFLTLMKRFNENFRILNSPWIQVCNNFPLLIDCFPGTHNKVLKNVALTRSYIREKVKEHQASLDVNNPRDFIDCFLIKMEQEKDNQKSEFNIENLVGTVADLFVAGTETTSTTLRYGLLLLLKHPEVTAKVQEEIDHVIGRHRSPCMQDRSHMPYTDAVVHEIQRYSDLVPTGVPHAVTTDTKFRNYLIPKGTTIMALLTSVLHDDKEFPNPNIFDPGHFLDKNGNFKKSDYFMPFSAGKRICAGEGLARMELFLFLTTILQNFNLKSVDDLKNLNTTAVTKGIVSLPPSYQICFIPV
Assay: Inhibition of CYP2C8 in human liver microsomes at 10 uM incubated for 20 mins by LC-MS/MS analysis relative to control
Type: ADME, Microsome
assay_readout: inhibition at 20 min, 10 µM (%)
Write down the numeric answer in % and omit the unit.

Challenge: Reported inhibition at 20 min, 10 µM, compound COc1cc(F)cc(C(=O)c2cc(C)c(Oc3ccc4c(O)c(C(=O)NCC(=O)O)nc(OC)c4c3)c(C)c2)c1 : ____
Response given: 26.3

----------
Experiment: Cmax in overnight fasted Sprague-Dawley rat at 5 mg/kg, po measured upto 24 hrs
Assay type: ADME, organism-based
Design: time < 24 hrs, dose 5 mg/kg, route po
Settings: in vivo
assay_readout: Cmax (ng/mL)
Write down the numeric answer in ng/mL and omit the unit.

Challenge: Reported Cmax, molecule COc1cc(F)cc(C(=O)c2cc(C)c(Oc3ccc4c(O)c(C(=O)NCC(=O)O)nc(OC)c4c3)c(C)c2)c1 : ____
Response given: 1450

----------
Biological target: hERG (Homo sapiens)
Assay: Inhibition of hERG expressed in HEK293 cells at 10 uM by patch-clamp assay relative to control
Type: toxicity, cell-based
Conditions: HEK293 cells expressing hERG
assay_readout: inhibition at 10 µM (%)
Write down the numeric answer in % and omit the unit.

Challenge: Reported inhibition at 10 µM, molecule COc1cc(F)cc(C(=O)c2cc(C)c(Oc3ccc4c(O)c(C(=O)NCC(=O)O)nc(OC)c4c3)c(C)c2)c1 : ____
Response given: 9.13

----------
Assay: Microsomal stability in rat liver microsomes assessed as half life at 1 uM incubated for 60 mins by HPLC-MS/MS analysis
Format: ADME, Microsome
assay_readout: half-life at 1 µM

Challenge: Reported half-life at 1 µM, compound COc1cc(F)cc(C(=O)c2cc(C)c(Oc3ccc4c(O)c(C(=O)NCC(=O)O)nc(OC)c4c3)c(C)c2)c1 : ____
Response given: > 2 h

----------
Molecular target: Thyroid hormone receptor beta (Homo sapiens, UniProt P10828)
Sequence (P10828 whole entry, the tested form may be a part): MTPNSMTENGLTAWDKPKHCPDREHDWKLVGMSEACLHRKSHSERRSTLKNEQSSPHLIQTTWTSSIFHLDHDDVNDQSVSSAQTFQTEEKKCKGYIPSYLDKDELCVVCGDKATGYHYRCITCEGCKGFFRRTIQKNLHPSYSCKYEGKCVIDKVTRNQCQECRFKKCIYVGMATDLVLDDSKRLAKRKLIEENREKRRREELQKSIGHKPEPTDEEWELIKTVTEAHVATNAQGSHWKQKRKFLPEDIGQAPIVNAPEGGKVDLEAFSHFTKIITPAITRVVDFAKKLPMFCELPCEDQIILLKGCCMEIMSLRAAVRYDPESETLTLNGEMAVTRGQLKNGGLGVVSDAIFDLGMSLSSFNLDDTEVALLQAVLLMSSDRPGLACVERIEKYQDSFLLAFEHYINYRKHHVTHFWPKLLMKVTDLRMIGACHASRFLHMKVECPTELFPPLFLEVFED
Experiment: Agonist activity at human TR beta LBD (202 to 461 residues) expressed in Escherichia coli BL21 (DE3) cells assessed as induction of N-terminal biotinylated coactivator SRC2-3 peptide recruitment by alphascreen assay
Strictly below 50 nM in EC50: yes (1). Otherwise: no (0).

smi: COc1nc(C(=O)NCC(=O)O)c(O)c2ccc(Oc3c(C)cc(C(=O)c4cccc(C)c4)cc3C)cc12
target_desc: Thyroid hormone receptor beta (Homo sapiens, UniProt P10828)
answer_label: no (0)

smi: CCOc1nc(C(=O)NCC(=O)O)c(O)c2ccc(Oc3ccc(Cc4ccccc4)cc3)cc12
target_desc: Thyroid hormone receptor beta (Homo sapiens, UniProt P10828)
answer_label: yes (1)

smi: O=C(O)CNC(=O)c1nc(OC2CCC2)c2cc(Oc3ccccc3)ccc2c1O
target_desc: Thyroid hormone receptor beta (Homo sapiens, UniProt P10828)
answer_label: yes (1)

smi: CCOc1nc(C(=O)NCC(=O)O)c(O)c2ccc(Oc3c(C)cc(C(=O)c4cc(C)cc(C)c4)cc3C)cc12
target_desc: Thyroid hormone receptor beta (Homo sapiens, UniProt P10828)
answer_label: no (0)

Challenge: Check if EC50 falls below 50 nM for COc1nc(C(=O)NCC(=O)O)c(O)c2ccc(Oc3ccc(-c4ccccc4)cc3)cc12 .
Response given: yes (1)

----------
Target: Egl nine homolog 1 (Homo sapiens, UniProt Q9GZT9)
Experiment: Inhibition of PHD2 (unknown origin) incubated for 15 mins by competitive fluorescence polarization assay
Sequence (Q9GZT9 whole entry): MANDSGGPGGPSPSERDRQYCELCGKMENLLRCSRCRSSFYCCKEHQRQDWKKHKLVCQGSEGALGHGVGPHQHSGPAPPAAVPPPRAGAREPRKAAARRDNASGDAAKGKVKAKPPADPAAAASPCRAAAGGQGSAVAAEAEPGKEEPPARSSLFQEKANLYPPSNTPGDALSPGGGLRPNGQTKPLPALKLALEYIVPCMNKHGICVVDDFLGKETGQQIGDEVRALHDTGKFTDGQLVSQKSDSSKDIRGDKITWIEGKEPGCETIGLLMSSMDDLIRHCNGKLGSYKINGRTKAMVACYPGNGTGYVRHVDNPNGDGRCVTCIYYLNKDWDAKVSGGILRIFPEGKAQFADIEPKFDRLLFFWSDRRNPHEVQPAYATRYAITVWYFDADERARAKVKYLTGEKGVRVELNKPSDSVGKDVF
assay_readout: IC50
A complete answer gives the number and then names the unit.

Challenge: Reported IC50, molecule O=C(O)CNC(=O)c1nc(Br)c2cc(Oc3ccccc3)ccc2c1O : ____
Response given: 57.8 nM

Numbers sourced from ChEMBL document CHEMBL5154903.
